Tested on: 883617-216-R-J1-PDC complex spheroid viability;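 also: spheroids exposed to compounds for seven days before readout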
assay.text: Anticancer human tumor 883617-216-R-J1-PDC patient-derived bladder carcinoma cell line growth inhibition [POLQ]
settings: curve of first compound; second compound 0.0316 µM
property.name: IC50

Per the record, C=CCn1c(=O)c2cnc(Nc3ccc(N4CCN(C)CC4)cc3)nc2n1-c1cccc(C(C)(C)O)n1 + Nc1ccc(C#CCN(C(=O)Cc2ncc(C(F)(F)F)cc2C(F)(F)F)c2ccc(F)cc2)nn1 has IC50 of > 1000 nM

Per the record, Cn1ncnc1[C@H]1c2n[nH]c(=O)c3cc(F)cc(c23)N[C@@H]1c1ccc(F)cc1 + Cc1cccc(N(C)C(=O)C2C(O)CCN2c2nc(C)cc(C(F)(F)F)c2C#N)c1 has IC50 of > 100 nM

Per the record, CC[C@@]1(O)C(=O)OCc2c1cc1n(c2=O)Cc2cc3c(CN(C)C)c(O)ccc3nc2-1 + COC1C(OC(N)=O)C(O)C(Oc2ccc3c(O)c(NC(=O)c4ccc(O)c(CC=C(C)C)c4)c(=O)oc3c2C)OC1(C)C has IC50 of > 100 nM

Per the record, CCc1cc2c(N3CCc4c(cc(Cn5ccnc5)cc4-c4cn(C)nc4C(F)(F)F)C3=O)ccnc2c(OC)n1 + Cc1cccc(N(C)C(=O)C2C(O)CCN2c2nc(C)cc(C(F)(F)F)c2C#N)c1 has IC50 of > 10000 nM

Per the record, CC1COCCN1c1cc(C2(O)CC3CCC(C2)O3)c2cnn(-c3ccn[nH]3)c2n1 (stereo not given) + Nc1ccc(C#CCN(C(=O)Cc2ncc(C(F)(F)F)cc2C(F)(F)F)c2ccc(F)cc2)nn1 has IC50 of 214 nM
